Data provenance: patent US20240246981A1

Assay: Assay C: permeability in CACO-2 cells
Assay type: in vitro ADME
Conditions: human, pH 7.2; Caco-2; compounds of the invention, Table 7
property_measured: efflux ratio

[[record]]
compound = "Cn1cnnc1C1(F)CCN(c2c(C#N)cccc2-c2cnc3nnn(Cc4ccccc4)c3c2)CC1 [compound 63]"
recorded_result = 14.5

[[record]]
compound = "COc1cncc(-c2cccc(C#N)c2N2CCC(c3nncn3C)CC2)c1 [compound 16]"
recorded_result = 12.2

[[record]]
compound = "Cn1cnnc1C1(F)CCN(c2c(C#N)cccc2-c2cnc3nc(C(F)(F)F)cn3c2)CC1 [compound 74]"
recorded_result = 14.1

[[record]]
compound = "Cn1cnnc1C1CCN(c2c(C#N)cccc2-c2cncc(C3CCCCO3)c2)CC1 (centres unmarked) [compound 39]"
recorded_result = 5.1

[[record]]
compound = "Cn1cnnc1C1CCN(c2c(C#N)cccc2-c2cccnc2)CC1 [compound 67]"
recorded_result = 7.4

[[record]]
compound = "COc1cc(-c2cccc(C#N)c2N2CCC(F)(c3nncn3C)CC2)cnc1F [compound 53]"
recorded_result = 1.3

[[record]]
compound = "Cn1cnnc1C1(F)CCN(c2c(C#N)cccc2-c2cnc3nc(C(C)(C)C)nn3c2)CC1 [compound 72]"
recorded_result = 14.4

[[record]]
compound = "COc1cc(F)ncc1-c1cccc(C#N)c1N1CCC(c2nncn2C)CC1 [compound 44]"
recorded_result = 1.5


----------
Target: QPCT (Homo sapiens (Human), UniProt Q16769)
Sequence (Q16769 29-361): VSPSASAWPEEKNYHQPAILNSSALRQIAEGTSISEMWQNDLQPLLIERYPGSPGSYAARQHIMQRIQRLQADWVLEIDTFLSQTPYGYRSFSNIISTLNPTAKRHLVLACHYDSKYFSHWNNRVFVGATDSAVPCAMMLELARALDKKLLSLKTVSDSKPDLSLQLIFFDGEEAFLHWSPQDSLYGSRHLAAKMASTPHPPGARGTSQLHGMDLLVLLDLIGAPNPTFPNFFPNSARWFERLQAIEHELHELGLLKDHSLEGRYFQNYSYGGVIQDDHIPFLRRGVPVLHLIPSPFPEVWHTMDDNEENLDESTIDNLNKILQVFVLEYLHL
Test: Assay A: biochemical QPCT activity assay (MALDI-TOF MS)
Details: compounds of the invention, Table 2; read-out: Inhibition of QPCT: IC50
property_measured: IC50 (µM)

[[record]]
compound = "Cn1cc2cc(-c3cccc(C#N)c3N3CCC(c4nncn4C)CC3)cnc2n1"
property_measured = "IC50"
recorded_result = 0.003

[[record]]
compound = "Cn1cnnc1C1CCN(c2c(C#N)cccc2-c2cncc(-n3cccn3)c2)CC1 [compound 6, reference compound]"
property_measured = "IC50"
recorded_result = 0.007

[[record]]
compound = "Cn1cnnc1C1CCN(c2c(C#N)cccc2-c2cnc(F)c(OC(F)(F)F)c2)CC1"
property_measured = "IC50"
recorded_result = 0.071

[[record]]
compound = "Cn1cnnc1C1CCN(c2c(C#N)cccc2-c2cnc3nc(-c4cccc(Cl)c4)ccn23)CC1"
property_measured = "IC50"
recorded_result = 0.012

[[record]]
compound = "Cn1cnnc1C1(F)CCN(c2c(C#N)cccc2-c2cnc3nc(C(F)(F)F)nn3c2)CC1"
property_measured = "IC50"
recorded_result = 0.008

[[record]]
compound = "Cc1cncc(-c2cccc(C#N)c2N2CCC(c3nncn3C)CC2)c1"
property_measured = "IC50"
recorded_result = 0.128

[[record]]
compound = "Cn1cnnc1C1CCN(c2c(C#N)cccc2-c2cnc(F)c(OCc3ccccc3)c2)CC1"
property_measured = "IC50"
recorded_result = 0.012

[[record]]
compound = "COc1cc(F)ncc1-c1cccc(C#N)c1N1CCC(c2nncn2C)CC1"
property_measured = "IC50"
recorded_result = 0.018


----------
Molecular target: QPCT (Homo sapiens (Human), UniProt Q16769)
Test: Assay A: biochemical QPCT activity assay (MALDI-TOF MS)
Conditions: compounds of the invention, Table 2; read-out: Inhibition of QPCT: IC50
property_measured: log10 of IC50 (log10 of the value in nM)

[[record]]
compound = "Cn1cnnc1C1CCN(c2c(C#N)cccc2-c2cnn3nc(-c4cccc(Cl)c4)ccc23)CC1 [compound 81]"
recorded_result = 0.70

[[record]]
compound = "Cn1cnnc1C1CCN(c2c(C#N)cccc2-c2cnc3nc[nH]c3c2)CC1 [compound 33]"
recorded_result = 0.78

[[record]]
compound = "Cn1cnnc1C1CCN(c2c(C#N)cccc2-c2cnc(F)c(Cl)c2)CC1 [compound 42]"
recorded_result = 1.38

[[record]]
compound = "Cn1cnnc1C1CCN(c2c(C#N)cccc2-c2cnc(F)c(OC3CC3)c2)CC1 [compound 47]"
recorded_result = 0.90

[[record]]
compound = "Cn1cnnc1C1(F)CCN(c2c(C#N)cccc2-c2cnc3nc(C(F)(F)F)cn3c2)CC1 [compound 74]"
recorded_result = 0.00

[[record]]
compound = "Cn1cnnc1C1(F)CCN(c2c(C#N)cccc2-c2cnn3ncccc23)CC1 [compound 70]"
recorded_result = 0.30

[[record]]
compound = "COC(=O)c1cncc(-c2cccc(C#N)c2N2CCC(c3nncn3C)CC2)c1 [compound 27]"
recorded_result = 2.00

[[record]]
compound = "Cn1cnnc1C1CCN(c2c(C#N)cccc2-c2cnc3n[nH]cc3c2)CC1 [compound 26]"
recorded_result = 1.38


----------
Assay: Assay C: permeability in CACO-2 cells
Type: in vitro ADME
Settings: human, pH 7.2; Caco-2, apical to basolateral; compounds of the invention, Table 7
Kind request: treat 4 ×10⁻⁶ cm/s as inclusive, so Papp A→B at 4 ×10⁻⁶ cm/s or higher is Criterion met, anything lower is Criterion not met.

[[record]]
compound = "Cn1cnnc1C1CCN(c2c(C#N)cccc2-c2cncc3cnn(Cc4ccccc4)c23)CC1 [compound 76]"
label_value = "Criterion not met"

[[record]]
compound = "Cn1cnnc1C1(C)CCN(c2c(C#N)cccc2-c2ccc(F)nc2)CC1 [compound 66]"
label_value = "Criterion met"

[[record]]
compound = "Cn1cnnc1C1CCN(c2c(C#N)cccc2-c2cnc3c(c2)CCCO3)CC1 [compound 12]"
label_value = "Criterion not met"

[[record]]
compound = "Cn1cnnc1C1CCN(c2c(C#N)cccc2-c2cncc(C3CC3)c2)CC1 [compound 15]"
label_value = "Criterion met"

[[record]]
compound = "Cn1cnnc1C1CCN(c2c(C#N)cccc2-c2cnc(F)c(OCc3ccccc3)c2)CC1 [compound 35]"
label_value = "Criterion met"

[[record]]
compound = "COCCOc1ncc(-c2cccc(C#N)c2N2CCC(c3nncn3C)CC2)cn1 [compound 3, reference compound]"
label_value = "Criterion not met"

[[record]]
compound = "Cn1cnnc1C1CCN(c2c(C#N)cccc2-c2cnc3c(c2)NCCO3)CC1 [compound 24]"
label_value = "Criterion not met"

[[record]]
compound = "Cn1cnnc1C1(F)CCN(c2c(C#N)cccc2-c2ccc(F)nc2)CC1 [compound 56]"
label_value = "Criterion met"

[[record]]
compound = "Cn1cnnc1C1(F)CCN(c2c(C#N)cccc2-c2cnc3nnn(Cc4ccccc4)c3c2)CC1 [compound 63]"
label_value = "Criterion not met"

[[record]]
compound = "Cn1cnnc1C1CCN(c2c(C#N)cccc2-c2cnc(F)c(Cl)c2)CC1 [compound 42]"
label_value = "Criterion met"

[[record]]
compound = "Cn1cnnc1C1(F)CCN(c2c(C#N)cccc2-c2cncc3cn(Cc4ccccc4)nc23)CC1 [compound 78]"
label_value = "Criterion met"

[[record]]
compound = "Cn1cnnc1C1CCN(c2c(C#N)cccc2-c2cncnc2)CC1 [compound 13]"
label_value = "Criterion not met"

[[record]]
compound = "Cn1cnnc1C1CCN(c2c(C#N)cccc2-c2cncc(C(N)=O)c2)CC1 [compound 14]"
label_value = "Criterion not met"

[[record]]
compound = "Cn1cnnc1C1(F)CCN(c2c(C#N)cccc2-c2cnc3nn(C(C)(C)C(F)(F)F)cc3c2)CC1 [compound 61]"
label_value = "Criterion met"

[[record]]
compound = "Cn1cnnc1C1(F)CCN(c2c(C#N)cccc2-c2cnc3nn(CC(F)F)cc3c2)CC1 [compound 60]"
label_value = "Criterion not met"

[[record]]
compound = "Cn1cnnc1C1CCN(c2c(C#N)cccc2-c2cncc3cn(Cc4ccccc4)nc23)CC1 [compound 77]"
label_value = "Criterion not met"

[[record]]
compound = "Cn1cnnc1C1(F)CCN(c2c(C#N)cccc2-c2cnc3nc(C(C)(C)C)[nH]c3c2)CC1 [compound 69]"
label_value = "Criterion not met"

[[record]]
compound = "Cn1cc2cc(-c3cccc(C#N)c3N3CCC(c4nncn4C)CC3)cnc2n1 [compound 22]"
label_value = "Criterion not met"

[[record]]
compound = "Cn1cnnc1C1(F)CCN(c2c(C#N)cccc2-c2cnn3ncccc23)CC1 [compound 70]"
label_value = "Criterion met"

[[record]]
compound = "Cn1cnnc1C1CCN(c2c(C#N)cccc2-c2cnc3nsnc3c2)CC1 [compound 43]"
label_value = "Criterion not met"

[[record]]
compound = "Cn1cnnc1C1CCN(c2c(C#N)cccc2-c2ccnnc2)CC1 [compound 32]"
label_value = "Criterion not met"

[[record]]
compound = "Cn1cnnc1C1(F)CCN(c2c(C#N)cccc2-c2cnc3nn(C(C)(C)C)c(Cl)c3c2)CC1 [compound 86]"
label_value = "Criterion met"

[[record]]
compound = "COc1cc(F)ncc1-c1cccc(C#N)c1N1CCC(c2nncn2C)CC1 [compound 44]"
label_value = "Criterion met"

[[record]]
compound = "Cn1cnnc1C1CCN(c2c(C#N)cccc2-c2cnc(F)c(F)c2)CC1 [compound 20]"
label_value = "Criterion met"

[[record]]
compound = "COc1cc(-c2cccc(C#N)c2N2CCC(F)(c3nncn3C)CC2)cnc1F [compound 53]"
label_value = "Criterion met"

[[record]]
compound = "Cn1cnnc1C1CCN(c2c(C#N)cccc2-c2ccc(Cl)nc2)CC1 [compound 18]"
label_value = "Criterion met"

[[record]]
compound = "Cc1cc(C)n(-c2cncc(-c3cccc(C#N)c3N3CCC(c4nncn4C)CC3)c2)n1 [compound 51]"
label_value = "Criterion not met"

[[record]]
compound = "Cn1cnnc1C1(F)CCN(c2c(C#N)cccc2-c2cnc3nc(C(F)(F)F)cn3c2)CC1 [compound 74]"
label_value = "Criterion not met"

[[record]]
compound = "Cc1cncc(-c2cccc(C#N)c2N2CCC(c3nncn3C)CC2)c1 [compound 11]"
label_value = "Criterion met"

[[record]]
compound = "Cc1cc(F)ncc1-c1cccc(C#N)c1N1CCC(F)(c2nncn2C)CC1 [compound 83]"
label_value = "Criterion met"

[[record]]
compound = "Cn1cnnc1C1CCN(c2c(C#N)cccc2-c2cncc(-c3ncco3)c2)CC1 [compound 29]"
label_value = "Criterion not met"

[[record]]
compound = "Cn1cnnc1C1CCN(c2c(C#N)cccc2-c2cnc3nnn(C)c3c2)CC1 [compound 40]"
label_value = "Criterion not met"

